Read-out: Tissue Factor, F3 (gene 2152)
protocolText: BSK_CASM3C_TissueFactor: BioMAP Diversity Plus: CASM3C Assay for Tissue Factor Biomarker Activity (AID 2283052);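 note: cell surface tissue factor protein level read by ELISA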
protocolConditions: primary human coronary artery smooth muscle cells; actives raise or lower the signal
Calls of active or inactive are those of the source. Rule for the calls: active = hit-call score of the fitted dose curve at least 0.9, where 1 is the maximum; inactive = score below 0.9.
Possible outcomes: 1.0 = active, 0.0 = inactive

[[record]]
compound = "CNS(=O)(=O)c1cc(C(=O)N2CCC(CCN3C4CCC3CC(n3c(C)nc5ccccc53)C4)(c3cccc(F)c3)CC2)c(Cl)cc1F (stereo not given)"
classification = 0.0

[[record]]
compound = "O=C(O)c1cccc(Oc2ccccc2)c1"
classification = 0.0

[[record]]
compound = "O=C(CCCCCCCCc1cccnc1)N1CCC(C=C(c2ccccc2)c2ccccc2)CC1"
classification = 0.0

[[record]]
compound = "CCC(C)(C)C(=O)O[C@H]1C[C@@H](C)C=C2C=C[C@H](C)[C@H](CC[C@@H]3C[C@@H](O)CC(=O)O3)[C@H]21"
classification = 1.0

[[record]]
compound = "Cn1c(=O)c2c(ncn2C)n(C)c1=O"
classification = 0.0


----------
protocolText: TOX21_p53_BLA_p5_viability: Viability Assessment in the Tox21 HCT-116 p53 Agonism Beta-lactamase Assay, Phase 5 (AID 2283600)
Records with an inconclusive call do not appear. Calls of active or inactive are those of the source. The calls were made as follows: active = hit-call score of the fitted dose curve at least 0.9, where 1 is the maximum; inconclusive = response in the unintended direction; inactive = score below 0.9.
Possible outcomes: T = active, F = inactive

[[record]]
compound = "CC1=CC(=O)CC(C)(C)C1"
classification = "F"

[[record]]
compound = "Nc1cccc(N)c1"
classification = "F"

[[record]]
compound = "CCC(C)(C)C(=O)O[C@H]1C[C@@H](C)C=C2C=C[C@H](C)[C@H](CC[C@@H]3C[C@@H](O)CC(=O)O3)[C@H]21"
classification = "F"

[[record]]
compound = "C1N2CN3CN1CN(C2)C3"
classification = "F"

[[record]]
compound = "COc1cccc(-c2ccc(/C=C\\CN3CCCCCC3)cc2Cl)c1"
classification = "F"

[[record]]
compound = "Fc1ccccc1[C@@H](F)COC1CCC(Nc2ncnc3[nH]ncc23)CC1 (stereo not given in full)"
classification = "F"

[[record]]
compound = "O=C1OC(=O)C2C3C=CC(C3)C12 (stereo not given)"
classification = "F"

[[record]]
compound = "CC(C)(O)c1coc(S(=O)(=O)NC(=O)Nc2c3c(cc4c2CCC4)CCC3)c1"
classification = "F"

[[record]]
compound = "CC(C)CC(C)(O)C#CC(C)(O)CC(C)C (stereo not given)"
classification = "F"

[[record]]
compound = "Nc1ccc(Nc2ccccc2)cc1"
classification = "F"

[[record]]
compound = "CNS(=O)(=O)c1cc(C(=O)N2CCC(CCN3C4CCC3CC(n3c(C)nc5ccccc53)C4)(c3cccc(F)c3)CC2)c(Cl)cc1F (stereo not given)"
classification = "F"

[[record]]
compound = "CCc1cc(SCc2sc(-c3ccc(C(F)(F)F)cc3)nc2CN2CCN(c3ccc(OC)cc3)CC2)ccc1OCC(=O)O"
classification = "T"

[[record]]
compound = "CCCCC(CC)COC(=O)c1ccc(C(=O)OCC(CC)CCCC)cc1 (stereo not given)"
classification = "F"

[[record]]
compound = "C=CCCCCCCCCC(=O)O"
classification = "F"

[[record]]
compound = "C[C@](N)(Cc1ccc(O)c(O)c1)C(=O)O"
classification = "F"

[[record]]
compound = "CC(C)=CCCC(C)=CC=O"
classification = "F"

[[record]]
compound = "Clc1nc(Cl)c(Cl)c(Cl)c1Cl"
classification = "F"

[[record]]
compound = "O=C(O)c1cc(N=Nc2ccc(S(=O)(=O)Nc3ccccn3)cc2)ccc1O"
classification = "F"

[[record]]
compound = "CC(O)CN(CCN(CC(C)O)CC(C)O)CC(C)O (stereo not given)"
classification = "F"

[[record]]
compound = "Cc1ccc(C)c(O)c1"
classification = "F"

[[record]]
compound = "O=P(OC(CCl)CCl)(OC(CCl)CCl)OC(CCl)CCl"
classification = "F"

[[record]]
compound = "CN(C)c1ccc(N=NS(=O)(=O)O)cc1"
classification = "F"

[[record]]
compound = "CCN(C(=O)c1cc(C)cc(OC[C@H](C)Nc2ccncc2)c1)C(C)C"
classification = "F"

[[record]]
compound = "CCOC(=O)c1ccc(C2CCC(NC[C@H](O)COc3ccc(O)c(NS(C)(=O)=O)c3)CC2)cc1 (stereo not given in full)"
classification = "F"

[[record]]
compound = "COCCOc1cc2cc(C(=O)NC3CCN(C(C)C)CC3)n(CC(=O)Nc3ccc(Cl)cn3)c2cn1"
classification = "F"


----------
subjectOfTest: Luciferin 4-monooxygenase (Photinus pyralis) (UniProt P08659)
Sequence (P08659 whole entry, looked up): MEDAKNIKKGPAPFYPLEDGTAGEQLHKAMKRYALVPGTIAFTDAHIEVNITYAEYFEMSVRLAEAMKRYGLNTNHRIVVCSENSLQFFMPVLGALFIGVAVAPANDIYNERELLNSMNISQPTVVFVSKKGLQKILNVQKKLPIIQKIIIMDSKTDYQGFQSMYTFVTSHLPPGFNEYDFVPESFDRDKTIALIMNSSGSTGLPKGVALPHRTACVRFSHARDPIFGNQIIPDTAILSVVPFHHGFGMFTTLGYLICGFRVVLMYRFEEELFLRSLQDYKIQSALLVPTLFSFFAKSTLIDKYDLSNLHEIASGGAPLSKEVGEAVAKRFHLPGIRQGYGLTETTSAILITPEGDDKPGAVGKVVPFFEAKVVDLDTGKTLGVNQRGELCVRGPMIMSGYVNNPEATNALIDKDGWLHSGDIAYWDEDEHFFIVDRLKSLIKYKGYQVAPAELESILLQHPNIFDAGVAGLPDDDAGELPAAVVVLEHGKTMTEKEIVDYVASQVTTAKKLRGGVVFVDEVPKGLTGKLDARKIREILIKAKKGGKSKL
protocolText: CCTE_Simmons_QuantiLum_inhib_2: CCTE's Firefly Luciferase Inhibition Assay, Simmons Lab (AID 2283767)
Experimental: CCTE_Simmons_QuantiLum_inhib_2 is a biochemical, single-readout assay that uses purified luciferase enzyme in a cell-free assay.Measurements were taken 0.5 hour after chemical dosing in a 384-well plate.CCTE_Simmons_QuantiLum_inhib_2 is the assay component measured from the CCTE_Simmons_QuantiLum_inhib_2 assay. It is designed to make measurements of enzyme activity, a form of enzyme reporter, as detected with bioluminescence signals by Luciferase-coupled Quantilum levels technology. […]
Records with an inconclusive call do not appear. Calls of active or inactive are those of the source. Rule for the calls: active = hit-call score of the fitted dose curve at least 0.9, where 1 is the maximum; inconclusive = response in the unintended direction; inactive = score below 0.9.
Possible outcomes: active, inactive

[[record]]
compound = "O=c1n(CC2CO2)c(=O)n(CC2CO2)c(=O)n1CC1CO1 (stereo unspecified)"
classification = "inactive"

[[record]]
compound = "Oc1ccc2c(c1)-c1ccccc1C2"
classification = "inactive"

[[record]]
compound = "CCC(C)(C)C(=O)O[C@H]1C[C@@H](C)C=C2C=C[C@H](C)[C@H](CC[C@@H]3C[C@@H](O)CC(=O)O3)[C@H]21"
classification = "inactive"

[[record]]
compound = "CC(C)=CCCC(C)=CC=O"
classification = "inactive"

[[record]]
compound = "CC(C)=CCC/C(C)=C\\CO"
classification = "inactive"

[[record]]
compound = "Cc1ccc(N)cc1O"
classification = "active"


----------
subjectOfTest: human RAR-related Orphan Receptor beta (RORb), RORB (gene 6096)
protocolText: ATG_RORb_TRANS: Attagene TRANS-FACTORIAL HepG2 Assay for human RAR-related Orphan Receptor beta (RORb) (AID 2283010)
Inconclusive results are not listed. Calls of active or inactive are those of the source. Rule for the calls: active = hit-call score of the fitted dose curve at least 0.9, where 1 is the maximum; inconclusive = response in the unintended direction; inactive = score below 0.9.
readoutName: outcome

[[record]]
compound = "CC[C@H]1OC(=O)[C@H](C)[C@@H](O[C@H]2C[C@@](C)(OC)[C@@H](O)[C@H](C)O2)[C@H](C)[C@@H](O[C@@H]2O[C@H](C)C[C@H](N(C)C)[C@H]2O)[C@](C)(O)C[C@@H](C)C(=O)[C@H](C)[C@@H](O)[C@]1(C)O"
subjectoftest = "human RAR-related Orphan Receptor beta (RORb), RORB (gene 6096)"
result = "inactive"

[[record]]
compound = "CCc1cc(SCc2sc(-c3ccc(C(F)(F)F)cc3)nc2CN2CCN(c3ccc(OC)cc3)CC2)ccc1OCC(=O)O"
subjectoftest = "human RAR-related Orphan Receptor beta (RORb), RORB (gene 6096)"
result = "inactive"

[[record]]
compound = "CC(=O)OCCC(C)C"
subjectoftest = "human RAR-related Orphan Receptor beta (RORb), RORB (gene 6096)"
result = "inactive"

[[record]]
compound = "O=C(O)CCN(C1(C(=O)NO)CCCC1)S(=O)(=O)c1ccc(Oc2ccc(F)cc2)cc1"
subjectoftest = "human RAR-related Orphan Receptor beta (RORb), RORB (gene 6096)"
result = "inactive"

[[record]]
compound = "CC(C)CCCCCCOC(=O)c1ccc(C(=O)OCCCCCCC(C)C)c(C(=O)OCCCCCCC(C)C)c1"
subjectoftest = "human RAR-related Orphan Receptor beta (RORb), RORB (gene 6096)"
result = "inactive"

[[record]]
compound = "O=c1n(CC2CO2)c(=O)n(CC2CO2)c(=O)n1CC1CO1 (centres undefined)"
subjectoftest = "human RAR-related Orphan Receptor beta (RORb), RORB (gene 6096)"
result = "inactive"

[[record]]
compound = "Cc1ccc(C)c(O)c1"
subjectoftest = "human RAR-related Orphan Receptor beta (RORb), RORB (gene 6096)"
result = "inactive"

[[record]]
compound = "CCOC(=O)COc1ccc2c(c1)CC(NCC(O)c1cccc(Cl)c1)CC2 (centres undefined)"
subjectoftest = "human RAR-related Orphan Receptor beta (RORb), RORB (gene 6096)"
result = "inactive"

[[record]]
compound = "Nc1nc2ncc(CNc3ccc(C(=O)N[C@@H](CCC(=O)O)C(=O)O)cc3)nc2c(=O)[nH]1"
subjectoftest = "human RAR-related Orphan Receptor beta (RORb), RORB (gene 6096)"
result = "inactive"


----------
subjectOfTest: Nuclear respiratory factor 1 (Homo sapiens) (UniProt Q16656)
Sequence (Q16656 whole entry, looked up): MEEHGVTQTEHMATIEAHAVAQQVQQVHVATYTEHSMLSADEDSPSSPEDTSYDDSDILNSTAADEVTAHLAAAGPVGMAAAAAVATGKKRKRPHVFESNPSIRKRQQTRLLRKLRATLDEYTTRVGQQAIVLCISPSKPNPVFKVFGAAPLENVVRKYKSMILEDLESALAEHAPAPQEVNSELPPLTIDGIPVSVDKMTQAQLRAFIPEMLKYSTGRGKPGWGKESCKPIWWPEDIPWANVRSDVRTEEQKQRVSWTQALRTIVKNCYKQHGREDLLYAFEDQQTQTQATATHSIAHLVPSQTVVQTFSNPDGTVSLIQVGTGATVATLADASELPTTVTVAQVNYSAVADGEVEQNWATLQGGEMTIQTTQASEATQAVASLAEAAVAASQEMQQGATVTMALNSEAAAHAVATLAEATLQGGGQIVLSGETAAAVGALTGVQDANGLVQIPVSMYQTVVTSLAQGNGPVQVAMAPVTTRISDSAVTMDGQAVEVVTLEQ
protocolText: ATG_NRF1_CIS: Attagene CIS-FACTORIAL HepG2 Assay for human Nuclear Respiratory Factor 1 (NRF1) Orphan Gene (AID 2282987)
protocolConditions: HepG2 NRF1 cis-element reporter, Attagene multiplex; actives raise or lower the signal
Active and inactive are the calls of the source. Rule for the calls: active = hit-call score of the fitted dose curve at least 0.9, where 1 is the maximum; inactive = score below 0.9.
Possible outcomes: 1 (yes) (active), 0 (no) (inactive)

[[record]]
molecule = "Cc1ccc(N)cc1O"
classification = "0 (no)"

[[record]]
molecule = "COc1cccc(-c2ccc(/C=C\\CN3CCCCCC3)cc2Cl)c1"
classification = "0 (no)"

[[record]]
molecule = "COCCOCCOCCOC"
classification = "0 (no)"

[[record]]
molecule = "Cc1[nH]cnc1C[C@H]1CCc2c(C)c3ccccc3n2C1=O"
classification = "1 (yes)"

[[record]]
molecule = "NC(=O)NO"
classification = "0 (no)"

[[record]]
molecule = "O=c1[nH]c2ccc(S(=O)CCN3CCC(Cc4ccc(F)cc4)CC3)cc2o1 (configuration not stated)"
classification = "0 (no)"

[[record]]
molecule = "COC(=O)CC(=O)OC"
classification = "0 (no)"

[[record]]
molecule = "COc1ccc2sc(C(=O)Nc3nnn[nH]3)c(OC(C)C)c2c1"
classification = "0 (no)"

[[record]]
molecule = "CCOCCOCCOCCO"
classification = "0 (no)"

[[record]]
molecule = "CCOC(=O)c1ccc(C2CCC(NC[C@H](O)COc3ccc(O)c(NS(C)(=O)=O)c3)CC2)cc1 (some centres not stated)"
classification = "0 (no)"

[[record]]
molecule = "CCCC(=O)OCC"
classification = "0 (no)"

[[record]]
molecule = "O=C(O)CC(O)C(=O)O (configuration not stated)"
classification = "0 (no)"

[[record]]
molecule = "C1=CCCC=CCCC=CCC1"
classification = "0 (no)"

[[record]]
molecule = "O=C(OC[C@H]1O[C@@H](OC(=O)c2cc(O)c(O)c(OC(=O)c3cc(O)c(O)c(O)c3)c2)[C@H](OC(=O)c2cc(O)c(O)c(OC(=O)c3cc(O)c(O)c(O)c3)c2)[C@@H](OC(=O)c2cc(O)c(O)c(OC(=O)c3cc(O)c(O)c(O)c3)c2)[C@@H]1OC(=O)c1cc(O)c(O)c(OC(=O)c2cc(O)c(O)c(O)c2)c1)c1cc(O)c(O)c(OC(=O)c2cc(O)c(O)c(O)c2)c1"
classification = "0 (no)"

[[record]]
molecule = "Oc1ccc2c(c1)-c1ccccc1C2"
classification = "0 (no)"

[[record]]
molecule = "CN(C)c1ccc(Cc2ccc(N(C)C)cc2)cc1"
classification = "0 (no)"

[[record]]
molecule = "CCCCCCCCCCCCc1ccccc1"
classification = "0 (no)"

[[record]]
molecule = "CCc1cc(SCc2sc(-c3ccc(C(F)(F)F)cc3)nc2CN2CCN(c3ccc(OC)cc3)CC2)ccc1OCC(=O)O"
classification = "0 (no)"

[[record]]
molecule = "CC(C)CCCCCCOC(=O)c1ccc(C(=O)OCCCCCCC(C)C)c(C(=O)OCCCCCCC(C)C)c1"
classification = "0 (no)"

[[record]]
molecule = "CC(C)CCO"
classification = "0 (no)"

[[record]]
molecule = "CNCc1ccc(NC(=O)c2c[nH]c3c2C(=O)CCC3)cc1"
classification = "0 (no)"

[[record]]
molecule = "CC(C)CCCCCCCOC(=O)CCCCC(=O)OCCCCCCCC(C)C"
classification = "0 (no)"

